# testTarget: T1, TRBC1 peptide (biotinylated) (human, also: biotinylated (site not given here))
# T1 construct: In the monoclonal screen: biotinylated, 0.5 ug/ml on neutravidin-coated plates; In the polyclonal phage ELISA also presented as BSA or OA conjugate of the C-terminal-cysteine form; also called Bio-TRBC1; biotinylated TRBC1
# T1 peptide: VLEDLNKVFPPEVAV
# protocol: TRF assay, scFv on biotin-peptide/neutravidin plate
# Description: The scFv populations from round-2 and round-3 selection outputs were sub-cloned into the pSANG10-3F expression vector and transformed into E. coli BL21 (DE3) cells. 1128 individual transformants (564 clones/TRBC peptide) were picked into 12×96 well culture plates (94 clones/plate) and antibody expression was induced using autoinduction media. […]
No end group written: not given here.
measuredQuantity: TRBC1 binding

{"binder": "CP_01_C08 (scFv, not shown: small tags and cut ends, scFv from pSANG10-3F (His6, tri-FLAG), culture supernatant) scFv: EVQLLESGGGAVQPGRSLRLSCAASGFTFSSYAMHWVRQAPGKGLEWVAVISYDGSNKYYADSVKGRFTISRDNSKNTLYLQMNSLRAEDTAVYYCASGYSSSWYLDYWGQGTLVTVSSGGGGSGGGGSGGGASDIQMTQSPSSVSASVGDRVTITCQASQDISNYLNWYQQKPGKAPKLLIYDASNLETGVPSRFSGSGSGTDFTFTISSLQPEDIATYYCQQYDNLPLTFGGGTKVEIKRTAAA", "valueMeasured": "353000 TRF units"}
{"binder": "CP_01_D12 (scFv, not shown: small tags and cut ends, scFv from pSANG10-3F (His6, tri-FLAG), culture supernatant) scFv: EVQLLESGGGVVQPGRSLRLSCAASGFTFSSYAMHWVRQAPGKGLEWVAVISYDGSNKYYADSVKGRFTISRDNSKNTLYLQMNSLRAEDTAVYYCAKGGDTYGFLDNWGQGTMVTVSSGGGGSGGGGSGGGASDIQMTQSPSTLSASVGDRVTITCRASQSISSWLAWYQQKPGKAPKLLIYKASSLESGVPSRFSGSGSGTDFTLTISSLQPEDFATYYCQQFNAYPLTFGGGTKVEIKRTAAA", "valueMeasured": "393000 TRF units"}
{"binder": "CP_01_D03 (scFv, not shown: small tags and cut ends, scFv from pSANG10-3F (His6, tri-FLAG), culture supernatant) scFv: QVQLVESGGGVVQPGRSLRLSCAAPGFTFSSYGMHWVRQAPGKGLEWVAVISYDGSNKYYADSVKGRFTISRDNSKNTLYLQMNSLRAEDTAVYYCARNKQYGMDVWGQGTLVTVSSGGGGSGGGGSGGGASDIVMTQSPATLSLAPGERATLSCRASQSVGSNLAWYQQKPGQAPSLLIYDASTRATGIPARFSGSGSGTDFTLTISSLQSEDIAVYYCQQYHRWPLTFGGGTKVEIKRTAAA", "valueMeasured": "328000 TRF units"}
